molecular target: IKKε (Homo sapiens (Human), UniProt Q14164); experiment: IKKε TR-FRET enzymatic assay; assay type: biochemical; conditions: read-out: IKKe IC50
Sequence (Q14164 whole entry): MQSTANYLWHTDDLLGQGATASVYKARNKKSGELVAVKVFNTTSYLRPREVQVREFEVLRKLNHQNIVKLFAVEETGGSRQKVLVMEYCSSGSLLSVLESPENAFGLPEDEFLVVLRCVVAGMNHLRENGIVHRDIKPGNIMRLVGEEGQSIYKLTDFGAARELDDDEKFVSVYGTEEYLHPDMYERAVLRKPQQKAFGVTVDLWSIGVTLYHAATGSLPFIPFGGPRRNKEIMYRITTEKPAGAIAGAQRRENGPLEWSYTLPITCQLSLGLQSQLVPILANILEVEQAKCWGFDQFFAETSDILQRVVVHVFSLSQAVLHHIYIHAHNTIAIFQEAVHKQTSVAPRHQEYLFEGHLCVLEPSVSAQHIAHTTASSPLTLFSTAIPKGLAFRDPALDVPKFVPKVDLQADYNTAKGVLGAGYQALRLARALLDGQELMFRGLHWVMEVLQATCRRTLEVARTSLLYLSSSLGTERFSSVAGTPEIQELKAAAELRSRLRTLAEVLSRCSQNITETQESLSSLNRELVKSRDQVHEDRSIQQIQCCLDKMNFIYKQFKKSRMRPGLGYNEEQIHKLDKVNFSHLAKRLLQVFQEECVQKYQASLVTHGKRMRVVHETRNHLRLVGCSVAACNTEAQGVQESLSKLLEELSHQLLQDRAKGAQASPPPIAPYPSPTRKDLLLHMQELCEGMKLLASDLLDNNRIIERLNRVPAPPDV
pIC50: −log10 of the molar value.
Property Label: pIC50

Check out these entries, answers already filled in.
Compound	Assay System	Property Label	Numeric Readout
N#Cc1cc(-c2ncnc(Nc3ccc(N4CCN(C5COC5)CC4)cc3)n2)ccc1O[C@H]1CCN(C(=O)c2ncc[nH]2)C[C@H]1F	IKKε (Homo sapiens (Human), UniProt Q14164)	pIC50	8.40
C[C@H]1C[C@H](Oc2ccc(-c3ncnc(Nc4ccc(N5CCN(C6COC6)CC5)cc4)n3)cc2C#N)[C@H](F)CN1C(=O)CO	IKKε (Homo sapiens (Human), UniProt Q14164)	pIC50	7.68
N#Cc1cc(-c2ncnc(Nc3ccc(N4CCN(C5COC5)CC4)cc3)n2)ccc1O[C@H]1CCN(C(=O)c2cn[nH]c2)C[C@H]1F	IKKε (Homo sapiens (Human), UniProt Q14164)	pIC50	8.52
N#Cc1cc(-c2ncnc(Nc3ccc(N4CCN(C5COC5)CC4)cc3)n2)ccc1O[C@H]1CCN(C(=O)c2ccncn2)C[C@H]1F	IKKε (Homo sapiens (Human), UniProt Q14164)	pIC50	8.15
C[C@@H]1CN(C2COC2)CCN1c1ccc(Nc2ncnc(-c3ccc(O[C@H]4CCN(C(=O)CO)C[C@H]4F)c(C#N)c3)n2)cc1	IKKε (Homo sapiens (Human), UniProt Q14164)	pIC50	9.00
CC(C)NC(=O)c1ccc(Nc2ncnc(-c3ccc(O[C@@H]4CCNC4)c(C#N)c3)n2)cc1	IKKε (Homo sapiens (Human), UniProt Q14164)	pIC50	6.78
N#Cc1cc(-c2ncnc(Nc3ccc(N4CCN(C5COC5)CC4)cc3)n2)ccc1N1CCCC1=O	IKKε (Homo sapiens (Human), UniProt Q14164)	pIC50	6.28
COC1CCC(Oc2ccc(-c3ncnc(Nc4ccc(N5CCN(C6COC6)CC5)cc4)n3)cc2C#N)CC1 (centres unmarked)	IKKε (Homo sapiens (Human), UniProt Q14164)	pIC50	7.82

1: N#Cc1cc(-c2ncnc(Nc3ccc(N4CCO[C@@H](CO)C4)cc3)n2)ccc1OC1CCNCC1(F)F (some centres unmarked)
2: COC[C@@H](O)C(=O)N1CC[C@H](Oc2ccc(-c3ncnc(Nc4ccc(N5CCN(C6COC6)CC5)cc4)n3)cc2C#N)[C@H](F)C1
Task: Hi, I'm comparing 1 with 2 and wondering which one has the bigger number for pIC50. Any idea? Please identify the chosen entry by its label.
Output: 1

====

biological target: TBK1 (Homo sapiens (Human), UniProt Q9UHD2); test: TBK1 TR-FRET enzymatic assay;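 also: phosphorylation of a biotinylated Ser/Thr peptide by purified full-length recombinant TBK1, read by TR-FRET after 240 min at 25 °C, IC50 is the geometric mean of at least four runs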
Sequence (Q9UHD2 whole entry): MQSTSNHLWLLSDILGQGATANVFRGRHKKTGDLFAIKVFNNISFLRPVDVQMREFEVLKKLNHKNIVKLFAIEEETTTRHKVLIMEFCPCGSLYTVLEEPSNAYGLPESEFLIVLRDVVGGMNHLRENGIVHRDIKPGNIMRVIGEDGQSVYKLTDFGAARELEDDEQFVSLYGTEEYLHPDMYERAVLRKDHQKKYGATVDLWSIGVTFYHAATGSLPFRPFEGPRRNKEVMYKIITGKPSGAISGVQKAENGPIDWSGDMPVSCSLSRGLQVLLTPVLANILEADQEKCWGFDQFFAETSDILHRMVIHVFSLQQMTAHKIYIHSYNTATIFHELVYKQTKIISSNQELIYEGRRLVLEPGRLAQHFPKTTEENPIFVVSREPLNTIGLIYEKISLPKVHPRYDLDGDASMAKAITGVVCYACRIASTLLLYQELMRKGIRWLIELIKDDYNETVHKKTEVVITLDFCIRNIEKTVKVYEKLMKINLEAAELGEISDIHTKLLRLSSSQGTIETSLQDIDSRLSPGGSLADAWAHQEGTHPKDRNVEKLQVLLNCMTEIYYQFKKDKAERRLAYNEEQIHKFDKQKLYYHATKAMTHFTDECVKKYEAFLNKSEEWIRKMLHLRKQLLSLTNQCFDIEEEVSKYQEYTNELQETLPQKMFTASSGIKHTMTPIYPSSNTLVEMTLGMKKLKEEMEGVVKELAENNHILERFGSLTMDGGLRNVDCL
pIC50: −log10 of the molar value.
Property Label: pIC50

Compound	pIC50
C[C@H]1CN(C)CCN1c1ccc(Nc2ncnc(-c3ccc(O[C@H]4CCN(C(=O)CO)C[C@H]4F)c(C#N)c3)n2)cc1 [Example 500]	8.70

I: C[C@@H]1OC(=O)N[C@@H]1C(=O)N1CC[C@H](Oc2ccc(-c3ncnc(Nc4ccc(N5CCN(C6COC6)CC5)cc4)n3)cc2C#N)[C@H](F)C1 [Example 524]
II: N#Cc1cc(-c2ncnc(Nc3ccc(N4CCN(C5COC5)CC4)cc3)n2)ccc1N1CCC2(CCO2)CC1 [Example 214]
Task: Lower pIC50: I or II ? Please identify the chosen entry by its label.
Output: II

I: C[C@@H]1C[C@H](Oc2ccc(-c3ncnc(Nc4ccc(N5CCN(C6COC6)CC5)cc4)n3)cc2C#N)CCN1C(=O)[C@@H](C)O [Example 186]
II: C[C@H](O)C(=O)N1CC[C@H](Oc2ccc(-c3ncnc(Nc4cnc5c(c4)OCCN5)n3)cc2C#N)[C@H](F)C1 [Example 516]
Task: Hi, I'm comparing I with II and wondering which one has the bigger number for pIC50. Any idea? Please identify the chosen entry by its label.
Output: II

a: N#Cc1cc(-c2ncnc(Nc3ccc(N4CCN(C5COC5)CC4)cc3)n2)ccc1O[C@H]1CCN(c2ccccn2)C[C@H]1F [Example 480]
b: C[C@H](O)C(=O)N1CCC(Oc2ccc(-c3ncnc(Nc4ccc(C5CCN(C6COC6)CC5)cc4)n3)cc2C#N)CC1 [Example 23]
c: N#Cc1cc(-c2ncnc(Nc3ccc4c(c3)OC(F)(F)O4)n2)ccc1OC1CCOCC1 [Example 275]
Task: Arrange the 3 compounds from largest to smallest pIC50. Form field (ranking): labels in requested order.
Output: b, a, c
